# Target: NAD-dependent protein deacetylase sirtuin-1 (Homo sapiens, UniProt Q96EB6)
# Measurement protocol: Inhibition of human SIRT1 by fluorometric assay
pIC50: −log10 of the molar value.
Measurement name: pIC50

| Smi | Measurement name | Experimental value |
| --- | --- | --- |
| N#C/C(=C/c1ccc(-c2cc(Cl)ccc2Cl)o1)C(=O)Nc1cccc2ncccc12 | pIC50 | < 4.40 |

----------
# Target: NAD-dependent protein deacetylase sirtuin-1 (Homo sapiens)
# Sequence (whole entry): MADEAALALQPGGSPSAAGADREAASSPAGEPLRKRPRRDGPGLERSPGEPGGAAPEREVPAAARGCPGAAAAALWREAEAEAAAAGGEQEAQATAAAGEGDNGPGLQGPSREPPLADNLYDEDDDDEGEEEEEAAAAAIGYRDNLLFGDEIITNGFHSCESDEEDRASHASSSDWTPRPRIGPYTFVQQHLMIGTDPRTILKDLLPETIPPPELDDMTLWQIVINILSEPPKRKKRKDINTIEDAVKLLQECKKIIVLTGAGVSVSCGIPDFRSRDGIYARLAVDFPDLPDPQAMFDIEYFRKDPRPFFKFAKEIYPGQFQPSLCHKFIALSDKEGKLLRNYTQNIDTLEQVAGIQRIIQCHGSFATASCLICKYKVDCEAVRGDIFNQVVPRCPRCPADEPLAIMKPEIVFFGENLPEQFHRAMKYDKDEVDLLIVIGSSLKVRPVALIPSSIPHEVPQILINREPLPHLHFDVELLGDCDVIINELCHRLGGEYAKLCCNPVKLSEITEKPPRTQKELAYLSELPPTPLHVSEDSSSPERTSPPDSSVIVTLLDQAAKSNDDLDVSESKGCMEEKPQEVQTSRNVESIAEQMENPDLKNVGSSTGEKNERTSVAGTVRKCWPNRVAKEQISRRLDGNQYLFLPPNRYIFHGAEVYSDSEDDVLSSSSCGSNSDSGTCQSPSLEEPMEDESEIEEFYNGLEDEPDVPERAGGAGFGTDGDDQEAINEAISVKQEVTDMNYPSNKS
# Measurement protocol: Inhibition of GST-tagged human SIRT1 (133 to 747 amino acids) using ZMAL as substrate at 200 uM after 4 hrs by fluorescence-based microplate reader method
Criterion: inhibition meeting or surpassing 20%. Met: Fulfilled. Not met: Not fulfilled.

| Compound | Target | Label value |
| --- | --- | --- |
| CCC(Sc1nc(C)cc(C)n1)C(=O)Nc1ncc(Cc2cccc3ccccc23)s1 (racemic) | NAD-dependent protein deacetylase sirtuin-1 (Homo sapiens) | Fulfilled |
| Cc1cc(C)nc(SCC(=O)Nc2ncc(C(=O)Nc3cccc4ccccc34)s2)n1 | NAD-dependent protein deacetylase sirtuin-1 (Homo sapiens) | Not fulfilled |
| CCCCCC(=O)Nc1ncc(Cc2cccc3ccccc23)s1 | NAD-dependent protein deacetylase sirtuin-1 (Homo sapiens) | Not fulfilled |
| CCc1cc(CC)nc(SCC(=O)Nc2ncc(Cc3ccc(Cl)cc3)s2)n1 | NAD-dependent protein deacetylase sirtuin-1 (Homo sapiens) | Not fulfilled |
| Cc1cc(C)nc(S[C@@H](C)C(=O)Nc2ncc(Cc3cccc4ccccc34)s2)n1 | NAD-dependent protein deacetylase sirtuin-1 (Homo sapiens) | Not fulfilled |
| Cc1cc(C)nc(SCC(=O)N(C)c2ncc(Cc3cccc4ccccc34)s2)n1 | NAD-dependent protein deacetylase sirtuin-1 (Homo sapiens) | Not fulfilled |
| COc1ccc(Cc2cnc(NC(=O)C(C)Sc3nc(C)cc(C)n3)s2)cc1 (racemic) | NAD-dependent protein deacetylase sirtuin-1 (Homo sapiens) | Fulfilled |
| Cc1cc(O)nc(SCC(=O)Nc2ncc(Cc3cccc4ccccc34)s2)n1 | NAD-dependent protein deacetylase sirtuin-1 (Homo sapiens) | Not fulfilled |
| O=C(CSc1ncccn1)Nc1ncc(Cc2cccc3ccccc23)s1 | NAD-dependent protein deacetylase sirtuin-1 (Homo sapiens) | Not fulfilled |
| Cc1cc(C)nc(SCC(=O)Nc2nnc(Cc3ccc(Br)cc3)s2)n1 | NAD-dependent protein deacetylase sirtuin-1 (Homo sapiens) | Not fulfilled |
| Cc1cc(C)nc(SCC(=O)Nc2nnc(-c3ccccc3)s2)n1 | NAD-dependent protein deacetylase sirtuin-1 (Homo sapiens) | Not fulfilled |
| CC(=O)Nc1ncc(Cc2cccc3ccccc23)s1 | NAD-dependent protein deacetylase sirtuin-1 (Homo sapiens) | Not fulfilled |
| O=C(CSc1nc(-c2ccccc2)cc(-c2ccccc2)n1)Nc1ncc(Cc2ccc(Cl)cc2)s1 | NAD-dependent protein deacetylase sirtuin-1 (Homo sapiens) | Not fulfilled |
| Cc1cccc(Cc2cnc(NC(=O)CSc3nc(C)cc(C)n3)s2)c1 | NAD-dependent protein deacetylase sirtuin-1 (Homo sapiens) | Not fulfilled |
| Cc1cc(C)nc(SCC(=O)Nc2ncc(Cc3cccc4ccc(Cl)cc34)s2)n1 | NAD-dependent protein deacetylase sirtuin-1 (Homo sapiens) | Fulfilled |
| Cc1cc(C)nc(SCC(=O)Nc2nc(-c3ccc4ccccc4c3)cs2)n1 | NAD-dependent protein deacetylase sirtuin-1 (Homo sapiens) | Fulfilled |
| CC(Sc1ncccn1)C(=O)Nc1ncc(Cc2cccc3ccccc23)s1 (racemic) | NAD-dependent protein deacetylase sirtuin-1 (Homo sapiens) | Fulfilled |
| Cc1cc(C)nc(SCC(=O)Nc2ncc(Cc3cccc4ccccc34)s2)n1 | NAD-dependent protein deacetylase sirtuin-1 (Homo sapiens) | Not fulfilled |
| COc1ccc(Cc2cnc(NC(=O)CSc3nc(C)cc(C)n3)s2)cc1 | NAD-dependent protein deacetylase sirtuin-1 (Homo sapiens) | Not fulfilled |
| O=C(CSc1ccc(Cl)cc1)Nc1ncc(Cc2cccc3ccccc23)s1 | NAD-dependent protein deacetylase sirtuin-1 (Homo sapiens) | Not fulfilled |
| Cc1cc(C)nc(SCC(=O)Nc2ncc(Cc3c(C)ccc4ccccc34)s2)n1 | NAD-dependent protein deacetylase sirtuin-1 (Homo sapiens) | Not fulfilled |
| Cc1cc(C)nc(SCC(=O)Nc2nnc(C)s2)n1 | NAD-dependent protein deacetylase sirtuin-1 (Homo sapiens) | Not fulfilled |

The measurements presented in this section are drawn from ChEMBL document CHEMBL3769317.
